Target: HIV-2 PR (Human immunodeficiency virus type 2 subtype A, UniProt P04584)
Construct: HIV-2 PR (at a final concentration of 30 μg/mL); made in house
Sequence (P04584 514-612 limits assumed): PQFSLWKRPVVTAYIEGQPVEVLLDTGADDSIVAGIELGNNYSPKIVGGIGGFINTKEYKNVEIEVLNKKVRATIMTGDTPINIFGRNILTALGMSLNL
Assay: biochemical
Type: biochemical
Settings: inhibitor concentration resulting in half-maximal inactivation; pH 8.0, 25° C.; read-out: kinact (μM) HIV-2
experimental.endpoint: KI (inactivation) (µM)
Report the value in µM with no unit label.

Worked set:
O=C(C=C(CN1CCC(O)(c2ccc(Cl)cc2)CC1)SCCO)c1ccccc1	120
O=C(/C=C/C[N+]1([O-])CCC(O)(c2ccc(Cl)cc2)CC1)c1ccc(F)cc1 (stereo not drawn)	116
O=[N+]([O-])c1ccc(OCC2CO2)cc1 (stereo not drawn) [EPNP, 1,2-epoxy-3-(p-nitrophenoxy)-propane, reference compound]	6700
O=C(C#CCN1CCC(O)(c2ccc(Cl)cc2)CC1)c1cccc(-c2ccccc2)c1	8.6
OC1(c2ccc(Cl)cc2)CCN(CC#CC2(c3ccccc3)CO2)CC1 (stereo not drawn)	283

Now look at this one.
Q: Need KI (inactivation) of O=C(C#CCN1CCC(O)(c2ccc(Cl)cc2)CC1)c1ccccc1 , thanks.
Ans: 131

* * *

Target: HIV-1 protease (Human immunodeficiency virus type 1 group M subtype B, UniProt P03369)
Experiment: biochemical
Conditions: HIV-1 Protease IC50 (μM) 1M NaCl
Label label 1 when IC50 is strictly below 40 µM; otherwise label label 0.

Answered cases to consult:
OC1(c2ccccc2)CCN(CCCC2(c3ccccc3)OCCO2)CC1 [UCSF30]	label 0
Cc1ccc(C2(CCC(c3ccccc3)N3CCC(O)(c4ccc(Cl)cc4)CC3)SCCS2)cc1 (stereo not drawn) [UCSF48]	label 1
O=C(CCCN1CCC(O)(c2ccccc2)CC1)c1ccc(F)cc1 [UCSF31]	label 0
OC1(c2ccc(Cl)cc2)CCN(CCC[Si](c2ccccc2)(c2ccccc2)c2ccccc2)CC1 [UCSF47]	label 0
O=C(C=C(CN1CCC(O)(c2ccc(Cl)cc2)CC1)SCCO)c1ccccc1 [UCSF178]	label 0
OC1(c2ccc(Cl)cc2)CCN(CCCC2(c3ccc(F)cc3)SCCS2)CC1 [UCSF8]	label 1
O=C(CCCN1CCC(O)(c2ccc(Cl)cc2)C(O)C1)c1ccc(F)cc1 (stereo not drawn) [UCSF20]	label 0
OC1(c2ccccc2)CCN(CCCC(O)(c2ccccc2)c2ccc3ccccc3n2)CC1 (stereo not drawn) [UCSF32]	label 0

Q: Dear colleague, could you confirm whether IC50 of OCCNN=C(CCCN1CCC(O)(c2ccc(Cl)cc2)CC1)c1ccc(F)cc1 [UCSF14] falls below 40 µM? Thanks.
Ans: label 0

* * *

Biological target: HIV-1 protease (Human immunodeficiency virus type 1 group M subtype B, UniProt P03369)
Test: biochemical
Response field label takes yes (1) when HIV-1 Protease Therapeutic Index (LD50 /IC50) is strictly below 1 and no (0) in all other cases.

O=C(C#CCN1CCC(O)(c2ccc(Cl)cc2)CC1)c1ccc(-c2ccccc2)cc1	yes (1)
OC1(c2ccccc2)CCN(CCCC(O)(c2ccccc2)c2ccc3ccccc3n2)CC1 (stereo not drawn)	yes (1)
O=C(CCCN1CCC(O)(c2ccccc2)CC1)c1ccc(F)cc1	no (0)
OCCNN=C(CCCN1CCC(O)(c2ccc(Cl)cc2)CC1)c1ccc(F)cc1	no (0)
NN=C(CCCN1CCC(O)(c2ccc(Cl)cc2)CC1)c1ccc(F)cc1	yes (1)

Q: Hello, is HIV-1 Protease Therapeutic Index (LD50 /IC50) of the following compound strictly smaller than 1? OC1(c2ccc(Cl)cc2)CCN(CCCNCc2ccccc2)CC1
Ans: yes (1)

Q: Hello, is HIV-1 Protease Therapeutic Index (LD50 /IC50) of the following compound strictly smaller than 1? OC1(c2ccc(Cl)cc2)CCN(CCCC2(c3ccc(F)cc3)SCCCS2)CC1
Ans: no (0)
